Taken from the Immune Epitope Database (IEDB).

target-or-system: HLA-B*15:01
protocol: IEDB peptide-MHC binding, purified MHC/direct/fluorescence; filed as Kd, often an IC50 or EC50 that approximates it; bounds were set here for any values at or beyond the usual limits of such assays
condition-info: source organism: Yersinia pestis
Reported Kd values follow for various sequences
Form entry: value (µM) — number only.

Per the records, this sequence ( RQLESRLGY ) has Kd equal to 0.146

Per the records, this sequence ( MQLQLNCAY ) has Kd equal to 0.112

Per the records, this sequence ( AMQDPNPEV ) has Kd equal to 0.319

----------
target-or-system: HLA-A*69:01
protocol: IEDB peptide-MHC binding, purified MHC/competitive/fluorescence; filed as Kd, often an IC50 or EC50 that approximates it; bounds were set here for any values at or beyond the usual limits of such assays
condition-info: source organism: Zaire ebolavirus
measured-parameter: Kd

{"sequence-chain": "TAAIMLASY", "Kd": "≥ 20 µM"}

# next sequence below
Per the records, this sequence ( AFHQLVQVI ) has Kd equal to ≥ 20 µM
